target_or_test_system: Photo optimized trastuzumab; meditope enabled (Tmab)
Sequence (chain, as listed by the source, chain 1 of 2): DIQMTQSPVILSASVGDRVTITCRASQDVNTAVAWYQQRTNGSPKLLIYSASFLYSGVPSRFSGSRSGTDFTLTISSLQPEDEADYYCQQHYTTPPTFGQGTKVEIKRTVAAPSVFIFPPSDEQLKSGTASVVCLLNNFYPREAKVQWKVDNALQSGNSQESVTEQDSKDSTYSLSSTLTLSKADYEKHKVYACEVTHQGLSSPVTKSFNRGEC
Sequence (chain, as listed by the source, chain 2 of 2): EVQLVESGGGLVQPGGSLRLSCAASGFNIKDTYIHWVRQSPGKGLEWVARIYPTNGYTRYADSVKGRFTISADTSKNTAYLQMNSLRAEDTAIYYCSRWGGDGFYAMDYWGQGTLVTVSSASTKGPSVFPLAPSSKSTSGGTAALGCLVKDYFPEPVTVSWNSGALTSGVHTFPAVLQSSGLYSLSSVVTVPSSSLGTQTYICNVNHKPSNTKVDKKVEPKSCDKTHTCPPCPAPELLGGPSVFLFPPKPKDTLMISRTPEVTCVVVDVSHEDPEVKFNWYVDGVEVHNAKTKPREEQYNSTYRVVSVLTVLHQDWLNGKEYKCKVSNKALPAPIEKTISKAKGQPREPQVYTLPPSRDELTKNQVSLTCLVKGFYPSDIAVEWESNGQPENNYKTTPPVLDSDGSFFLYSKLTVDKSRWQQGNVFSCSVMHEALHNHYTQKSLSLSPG
assay_info: BLI Octet, antibody on anti-human Fc tip, peptide 37 nM
pKd: −log10 of the molar value.

{"binder": "CQFDLSTRRLRC (modifications not checked) [Peptide 22: DM1 conjugated cQFD (cQFD-DM1)]", "pKd": 8.58}
